# Tested on: 171881-019-R-J1-PDC multicell spheroid viability
# Experiment description: Anticancer human tumor 171881-019-R-J1-PDC patient-derived invasive breast carcinoma cell line growth inhibition [IpAb]
# Test parameters: second compound 1 µM; first compound 1 µM; hits give low values
# Procedure: Combinatorial screen of targeted agents with ipatasertib and abemaciclib in multi-cell type tumor spheroids […] Compounds. […] If the clinical Cmax for an agent had not been determined, the highest concentration tested was 10 microM. NCI60 Cell Culture. […] The optimal seeding densities for each of the cell lines at each time point assessed were determined prior to performing the concentration response studies. […]
Listed here are compounds together with their documented viability, T/C.

{"Compound": "COc1c(OCCCN2CCOCC2)ccc2c3n(c(=NC(=O)c4cnc(N)nc4)nc12)CCN3 + CCN1CCN(Cc2ccc(Nc3ncc(F)c(-c4cc(F)c5nc(C)n(C(C)C)c5c4)n3)nc2)CC1", "viability, T/C": "2%"}
{"Compound": "C=CCn1c(=O)c2cnc(Nc3ccc(N4CCN(C)CC4)cc3)nc2n1-c1cccc(C(C)(C)O)n1 + CC(C)NCC(C(=O)N1CCN(c2ncnc3c2C(C)CC3O)CC1)c1ccc(Cl)cc1", "viability, T/C": "9.22%"}
{"Compound": "CCCS(=O)(=O)Nc1ccc(F)c(C(=O)c2c[nH]c3ncc(-c4ccc(Cl)cc4)cc23)c1F + CC(C)NCC(C(=O)N1CCN(c2ncnc3c2C(C)CC3O)CC1)c1ccc(Cl)cc1", "viability, T/C": "41.4%"}
{"Compound": "CC1(C)CCC(CN2CCN(c3ccc(C(=O)NS(=O)(=O)c4ccc(NCC5CCOCC5)c([N+](=O)[O-])c4)c(Oc4cnc5[nH]ccc5c4)c3)CC2)=C(c2ccc(Cl)cc2)C1 + CC(C)NCC(C(=O)N1CCN(c2ncnc3c2C(C)CC3O)CC1)c1ccc(Cl)cc1", "viability, T/C": "32.3%"}
{"Compound": "Cn1nccc1Nc1nccc(-c2ccn(C(CO)c3ccc(Cl)c(F)c3)c(=O)c2)n1 (stereo not given) + CCN1CCN(Cc2ccc(Nc3ncc(F)c(-c4cc(F)c5nc(C)n(C(C)C)c5c4)n3)nc2)CC1", "viability, T/C": "61.5%"}
{"Compound": "Cn1ncc(Cl)c1-c1cc(C(=O)NC(CN)Cc2cccc(F)c2)sc1Cl (stereo not given) + CCN1CCN(Cc2ccc(Nc3ncc(F)c(-c4cc(F)c5nc(C)n(C(C)C)c5c4)n3)nc2)CC1", "viability, T/C": "27.3%"}
{"Compound": "Cc1nc(NC(=O)N2CCCC2C(N)=O)sc1-c1ccnc(C(C)(C)C(F)(F)F)c1 (stereo not given) + CC(C)NCC(C(=O)N1CCN(c2ncnc3c2C(C)CC3O)CC1)c1ccc(Cl)cc1", "viability, T/C": "13.5%"}
{"Compound": "C=CC(=O)N1CCN(c2nc(=O)n(-c3c(C)ccnc3C(C)C)c3nc(-c4c(O)cccc4F)c(F)cc23)C(C)C1 (stereo not given) + CC(C)NCC(C(=O)N1CCN(c2ncnc3c2C(C)CC3O)CC1)c1ccc(Cl)cc1", "viability, T/C": "22.1%"}
{"Compound": "COc1c(OCCCN2CCOCC2)ccc2c3n(c(=NC(=O)c4cnc(N)nc4)nc12)CCN3 + CC(C)NCC(C(=O)N1CCN(c2ncnc3c2C(C)CC3O)CC1)c1ccc(Cl)cc1", "viability, T/C": "1.24%"}
{"Compound": "CC1(C)CCC(CN2CCN(c3ccc(C(=O)NS(=O)(=O)c4ccc(NCC5CCOCC5)c([N+](=O)[O-])c4)c(Oc4cnc5[nH]ccc5c4)c3)CC2)=C(c2ccc(Cl)cc2)C1 + CCN1CCN(Cc2ccc(Nc3ncc(F)c(-c4cc(F)c5nc(C)n(C(C)C)c5c4)n3)nc2)CC1", "viability, T/C": "128%"}

----------
viability, T/C by entry:
# Tested on: 171881-019-R-J1-PDC multicell spheroid viability
# Experiment description: Anticancer human tumor 171881-019-R-J1-PDC cell line growth inhibition [IpAb];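 further: spheroids exposed to the agents for seven days before readout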
# Test parameters: second compound 1 µM; first compound 0.316 µM; hits give low values
Observation type: viability, T/C (%)

{"Compound": "Cc1nc(NC(=O)N2CCCC2C(N)=O)sc1-c1ccnc(C(C)(C)C(F)(F)F)c1 (stereo not given) + CC(C)NCC(C(=O)N1CCN(c2ncnc3c2C(C)CC3O)CC1)c1ccc(Cl)cc1", "Numeric value": 21.3}
{"Compound": "COc1c(OCCCN2CCOCC2)ccc2c3n(c(=NC(=O)c4cnc(N)nc4)nc12)CCN3 + CCN1CCN(Cc2ccc(Nc3ncc(F)c(-c4cc(F)c5nc(C)n(C(C)C)c5c4)n3)nc2)CC1", "Numeric value": 4.08}
{"Compound": "Cc1nc(NC(=O)N2CCCC2C(N)=O)sc1-c1ccnc(C(C)(C)C(F)(F)F)c1 (stereo not given) + CCN1CCN(Cc2ccc(Nc3ncc(F)c(-c4cc(F)c5nc(C)n(C(C)C)c5c4)n3)nc2)CC1", "Numeric value": 89.8}
{"Compound": "CCCS(=O)(=O)Nc1ccc(F)c(C(=O)c2c[nH]c3ncc(-c4ccc(Cl)cc4)cc23)c1F + CCN1CCN(Cc2ccc(Nc3ncc(F)c(-c4cc(F)c5nc(C)n(C(C)C)c5c4)n3)nc2)CC1", "Numeric value": 141}
{"Compound": "CCCS(=O)(=O)Nc1ccc(F)c(C(=O)c2c[nH]c3ncc(-c4ccc(Cl)cc4)cc23)c1F + CC(C)NCC(C(=O)N1CCN(c2ncnc3c2C(C)CC3O)CC1)c1ccc(Cl)cc1", "Numeric value": 38.9}

----------
Listed below: viability, T/C values for each entry.
# Test system: 171881-019-R-J1-PDC multicell spheroid viability
# Experiment description: Anticancer human tumor 171881-019-R-J1-PDC cell line growth inhibition [IpAb];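 further: spheroids exposed to the agents for seven days before readout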
# Test parameters: second compound 1 µM; first compound 0.1 µM; hits give low values
# Experimental: Combinatorial screen of targeted agents with ipatasertib and abemaciclib in multi-cell type tumor spheroids […] Compounds. […] If the clinical Cmax for an agent had not been determined, the highest concentration tested was 10 microM. NCI60 Cell Culture. […] The optimal seeding densities for each of the cell lines at each time point assessed were determined prior to performing the concentration response studies. […]

{"Compound": "C=CCn1c(=O)c2cnc(Nc3ccc(N4CCN(C)CC4)cc3)nc2n1-c1cccc(C(C)(C)O)n1 + CCN1CCN(Cc2ccc(Nc3ncc(F)c(-c4cc(F)c5nc(C)n(C(C)C)c5c4)n3)nc2)CC1", "Unit spec": "%", "viability, T/C": 150}
{"Compound": "C=CCn1c(=O)c2cnc(Nc3ccc(N4CCN(C)CC4)cc3)nc2n1-c1cccc(C(C)(C)O)n1 + CC(C)NCC(C(=O)N1CCN(c2ncnc3c2C(C)CC3O)CC1)c1ccc(Cl)cc1", "Unit spec": "%", "viability, T/C": 23.8}
{"Compound": "Cn1ncnc1[C@H]1c2n[nH]c(=O)c3cc(F)cc(c23)N[C@@H]1c1ccc(F)cc1 + CC(C)NCC(C(=O)N1CCN(c2ncnc3c2C(C)CC3O)CC1)c1ccc(Cl)cc1", "Unit spec": "%", "viability, T/C": 17.1}
{"Compound": "Cn1nccc1Nc1nccc(-c2ccn(C(CO)c3ccc(Cl)c(F)c3)c(=O)c2)n1 (stereo not drawn) + CC(C)NCC(C(=O)N1CCN(c2ncnc3c2C(C)CC3O)CC1)c1ccc(Cl)cc1", "Unit spec": "%", "viability, T/C": 10.3}
{"Compound": "C=CC(=O)N1CCN(c2nc(=O)n(-c3c(C)ccnc3C(C)C)c3nc(-c4c(O)cccc4F)c(F)cc23)C(C)C1 (stereo not drawn) + CC(C)NCC(C(=O)N1CCN(c2ncnc3c2C(C)CC3O)CC1)c1ccc(Cl)cc1", "Unit spec": "%", "viability, T/C": 26.6}
{"Compound": "Cc1nc(NC(=O)N2CCCC2C(N)=O)sc1-c1ccnc(C(C)(C)C(F)(F)F)c1 (stereo not drawn) + CCN1CCN(Cc2ccc(Nc3ncc(F)c(-c4cc(F)c5nc(C)n(C(C)C)c5c4)n3)nc2)CC1", "Unit spec": "%", "viability, T/C": 117}
{"Compound": "Cn1nccc1Nc1nccc(-c2ccn(C(CO)c3ccc(Cl)c(F)c3)c(=O)c2)n1 (stereo not drawn) + CCN1CCN(Cc2ccc(Nc3ncc(F)c(-c4cc(F)c5nc(C)n(C(C)C)c5c4)n3)nc2)CC1", "Unit spec": "%", "viability, T/C": 129}
{"Compound": "COc1c(OCCCN2CCOCC2)ccc2c3n(c(=NC(=O)c4cnc(N)nc4)nc12)CCN3 + CCN1CCN(Cc2ccc(Nc3ncc(F)c(-c4cc(F)c5nc(C)n(C(C)C)c5c4)n3)nc2)CC1", "Unit spec": "%", "viability, T/C": 17.2}
{"Compound": "Cn1ncnc1[C@H]1c2n[nH]c(=O)c3cc(F)cc(c23)N[C@@H]1c1ccc(F)cc1 + CCN1CCN(Cc2ccc(Nc3ncc(F)c(-c4cc(F)c5nc(C)n(C(C)C)c5c4)n3)nc2)CC1", "Unit spec": "%", "viability, T/C": 138}
{"Compound": "Cc1nc(NC(=O)N2CCCC2C(N)=O)sc1-c1ccnc(C(C)(C)C(F)(F)F)c1 (stereo not drawn) + CC(C)NCC(C(=O)N1CCN(c2ncnc3c2C(C)CC3O)CC1)c1ccc(Cl)cc1", "Unit spec": "%", "viability, T/C": 24.1}
{"Compound": "CC1(C)CCC(CN2CCN(c3ccc(C(=O)NS(=O)(=O)c4ccc(NCC5CCOCC5)c([N+](=O)[O-])c4)c(Oc4cnc5[nH]ccc5c4)c3)CC2)=C(c2ccc(Cl)cc2)C1 + CC(C)NCC(C(=O)N1CCN(c2ncnc3c2C(C)CC3O)CC1)c1ccc(Cl)cc1", "Unit spec": "%", "viability, T/C": 31.9}
{"Compound": "C=CC(=O)N1CCN(c2nc(=O)n(-c3c(C)ccnc3C(C)C)c3nc(-c4c(O)cccc4F)c(F)cc23)C(C)C1 (stereo not drawn) + CCN1CCN(Cc2ccc(Nc3ncc(F)c(-c4cc(F)c5nc(C)n(C(C)C)c5c4)n3)nc2)CC1", "Unit spec": "%", "viability, T/C": 148}
{"Compound": "COc1c(OCCCN2CCOCC2)ccc2c3n(c(=NC(=O)c4cnc(N)nc4)nc12)CCN3 + CC(C)NCC(C(=O)N1CCN(c2ncnc3c2C(C)CC3O)CC1)c1ccc(Cl)cc1", "Unit spec": "%", "viability, T/C": 2.24}
